Each item that follows carries a reported Neut IC50 (ug/ml) subtype B.
molecular target: RSV F protein of subtype B strain 18537, on virus (respiratory syncytial virus subtype B …, UniProt P13843 26-574); test: cell-based or functional assay
Sequence (P13843 26-574): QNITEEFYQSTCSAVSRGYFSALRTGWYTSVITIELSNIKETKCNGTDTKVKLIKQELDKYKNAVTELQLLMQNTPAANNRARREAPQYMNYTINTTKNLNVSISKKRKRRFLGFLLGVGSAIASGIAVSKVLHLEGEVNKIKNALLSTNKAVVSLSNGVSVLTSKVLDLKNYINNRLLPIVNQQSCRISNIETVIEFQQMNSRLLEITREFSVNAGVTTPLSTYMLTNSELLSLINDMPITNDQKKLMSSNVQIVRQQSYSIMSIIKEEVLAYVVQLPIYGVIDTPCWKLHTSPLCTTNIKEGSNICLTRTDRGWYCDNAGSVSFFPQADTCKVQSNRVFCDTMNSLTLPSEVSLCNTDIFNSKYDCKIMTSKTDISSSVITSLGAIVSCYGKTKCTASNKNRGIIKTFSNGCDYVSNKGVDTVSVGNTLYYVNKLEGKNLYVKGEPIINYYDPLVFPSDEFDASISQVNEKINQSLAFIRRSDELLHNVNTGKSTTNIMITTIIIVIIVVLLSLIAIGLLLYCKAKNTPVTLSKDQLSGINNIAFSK
REPORTED PROPERTY: Neut IC50 (ug/ml) subtype B (µg/mL)

BINDER: ADI-15648 (antibody, V domains shown, IgG; also called Antibody Number 212) VH: EVQLVESGGGLVKPGGSLRLSCAASGFTISGYNMFWVRQPPGKGLEWVSSITAGSSYLNYADSVKGRFIVSRDNAKNSLYLQMNSLRAEDTAVYFCARAPLLPAMMDLWGQGTTVTVSS VL: QSVVTQPPSVSGAPGQRVTISCTGSSSNIGAGYDVHWYQQLPGTAPKLLIYTNNNRPSGVPDRFSGSKSGTSASLAITGLQAEDEADYYCQSYDRSLNGYVFGTGTTVTVL
MEASUREMENT UNIT: µg/mL
EXPERIMENTAL VALUE: 0.145
//
BINDER: ADI-15643 (antibody, V domains shown, IgG) VH: QVQLVQSGAEVKKPGESLKISCKTSGYRFTNYWIGWVRQMPGKGLEWMGIIYPGDSDARYSPSFQGQVTFSADKSISTAYLHWSSLKASDTAMYYCARQDDSGWADFFPFDYWGQGTLVTVSS VL: EIVLTQSPGTLSLSPGERATLSCRASHSFSSTYLAWYQQKPGQAPRLLIYAASNRATGIPDRFSGSGSGTDFTLTISRLEPEDFAVYFCQQYDSSPWTFGQGTKLEIK
MEASUREMENT UNIT: µg/mL
EXPERIMENTAL VALUE: 0.115

Values were extracted from patent US20220144922A1.
